Hello, the source for this data is paper PMC9697349, in case you need it.

# EXPERIMENT_NOTES: Mouse pharmacokinetics, single i.v. dose
# Type: in vivo
# CONDITIONS_USED: plasma, iv, single i.v. dose of SH-11008 3 mg/kg, male ICR mice, read-out: Vss
ATTRIBUTE_MEASURED: Vd (L/kg)
Express the result in L/kg but write the number alone.

Entry COc1ccc(CC2COc3cc(OC)c(OC)c(OC)c3C2=O)cc1O (stereo not shown) [SH-11008] , Vd reported as 0.5

###

# EXPERIMENT_NOTES: Mouse pharmacokinetics, single i.v. dose
# Type: in vivo
# CONDITIONS_USED: plasma, iv, single i.v. dose of SH-11008 3 mg/kg, male ICR mice, read-out: AUCinf of SH-11008 (converted)
ATTRIBUTE_MEASURED: AUC(0-inf) (ng·h/mL)
Number only, in ng·h/mL; omit the unit.

Entry under test: COc1ccc(CC2COc3cc(OC)c(OC)c(OC)c3C2=O)cc1O (stereo not shown) . Its AUC(0-inf) was 239
